- SUBJECT OF TEST: T1, human OT7T175 (metastin receptor) (human, UniProt Q969F8 1-398)
- T1 construct: expressed on CHO cells (hOT7T175-expressed CHO cells; hOT7T175/CHO); also called hOT7T175; h0T7T175
- ASSAY PROTOCOL: FMAT competition with Cy-5-labeled metastin (40-54), hOT7T175-expressed CHO cells
pIC50: −log10 of the molar value. Numbered stars: 1 amine (or outer) side, 2 acyl side, 3 side chain; on linkers, the order of the positions; unused ones are H or OH. Square brackets hold non-standard residues; d marks the D form. Primed or numbered codes have the meaning given here. Ends that are not written are not given here. Trp(For)″ = Trp(CHO), O=Cn1cc(C[C@H](N[*:1])C(=O)[*:2])c2ccccc21; Arg(Me) = CNC(=N)NCCC[C@H](N)C(=O)O; azaGly = NNC(=O)O
Decide using pIC50: a value greater than or equal to 7 is Met, a smaller one is Not met.

INSERT INTO measurements (binder, class) VALUES
  ('YNWNSFGLR[Trp(For)″]-NH2 (also called [Trp(CHO)10]MS10) [Compound No. 186: [Trp(For)10]MS10]', 'Not met'),
  ('[dN]WNSFGL[Arg(Me)]F-NH2 [Compound No. 216: des(1)-[D-Asn2,Arg(Me)9]MS10]', 'Not met'),
  ('YYWNSFGLRF-NH2 [Compound No. 58: [Tyr2]MS10]', 'Met'),
  ('YNWNSF[azaGly]L[Arg(Me)]F-NH2 (also: Tyr1-Asn2 bond reduced (CH2NH)) [Compound No. 299: [1Ψ2,CH2NH,AzaGly7,Arg(Me)9]-MS10]', 'Met'),
  ('[dY]INSFGL[Arg(Me)]F-NH2 [Compound No. 228: des(1)-[D-Tyr2,Ile3,Arg(Me)9]MS10]', 'Met'),
  ('YNWNSXGLRF (D-Tyr1; Cha6; Arg(Me)9; C-terminal amide, printed structure is the same as that of Compound No. 172) [Compound No. 203: [D-Tyr1,Cha6,Arg(Me)9]MS10]', 'Met');

These measurements were taken from patent US20060241051A1.
